tested on: BCRP; assay: Mitoxantrone accumulation assay (flow cytometry); format: cell-based, human; conditions: human, probe mitoxantrone; 1 µM GF120918 (Fig 4); read-out: mitoxantrone accumulation inhibiting effect
Reported Property: inhibition at 1 µM (%)
Express your answer in %, writing the number without its unit.

Annotate the molecule COc1cc2c(cc1OC)CN(CCc1ccc(NC(=O)c3cccc4c(=O)c5cccc(OC)c5[nH]c34)cc1)CC2 [GF120918, reference compound] with its measured inhibition at 1 µM.
80
